target.or.test.system: Cellular tumor antigen p53 (Homo sapiens) (UniProt P04637)
Sequence (P04637 whole entry, looked up): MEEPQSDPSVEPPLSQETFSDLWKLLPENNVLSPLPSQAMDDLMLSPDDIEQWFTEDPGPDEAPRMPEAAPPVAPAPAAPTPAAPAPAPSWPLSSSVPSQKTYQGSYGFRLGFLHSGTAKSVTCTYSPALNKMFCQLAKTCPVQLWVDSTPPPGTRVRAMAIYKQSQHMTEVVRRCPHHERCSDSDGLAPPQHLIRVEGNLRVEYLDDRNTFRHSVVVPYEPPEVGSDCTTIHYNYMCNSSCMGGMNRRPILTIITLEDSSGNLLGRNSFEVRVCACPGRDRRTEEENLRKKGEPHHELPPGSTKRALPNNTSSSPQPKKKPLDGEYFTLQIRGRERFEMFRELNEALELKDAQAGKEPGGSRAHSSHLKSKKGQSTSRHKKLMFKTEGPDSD
test.method.notes: Primary qHTS for small molecule compounds that upregulate eGFP-tagged delta133p53alpha (in N-terminal) cells. (AID 2060322);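 further: cells pre-induced with doxycycline then dosed without doxycycline; 0% = DMSO vehicle and 100% = reference activator; nearly all actives have a fitted effect of over 75% in size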
test.settings: NCI-H358 eGFP-delta133p53alpha fluorescence, 24 h; hits give high values
Results filed as inconclusive are left out.
reported.property: activation (%)
Give the value in % but do not write % after it.

Dear colleague, I am looking for the recorded activation of the following compound: CC1C(=O)CC2C3C(O)CC(C(=O)O)C12CC3(C)C (stereo unspecified) 1.53

Subsequent entry: C[C@@H]1O[C@@H](O[C@H]2[C@H](OC(=O)[C@]34CCC(C)(C)C[C@H]3C3=CCC5[C@@]6(C)CC[C@H](O[C@@H]7O[C@H](CO[C@@H]8OC[C@H](O)[C@H](O)[C@H]8O)[C@@H](O)[C@H](O)[C@H]7O)C(C)(C)C6CC[C@@]5(C)[C@]3(C)C[C@H]4O)OC[C@@H](O)[C@@H]2O)[C@H](O)[C@H](O[C@@H]2OC[C@](O)(CO)[C@H]2O)[C@H]1O[C@@H]1OC[C@H](O)[C@H](O[C@@H]2OC[C@@H](O)[C@H](O)[C@H]2O)[C@H]1O (stereo partly specified) 5.36

// repeat for Cn1c(=O)cc(N2CCCC(N)C2)n(Cc2cc(F)ccc2C#N)c1=O (stereo unspecified) and report -2.86

What would you report for COc1ccc2nc3n[nH]c(C)c3c(NCCOCCO)c2c1 ? 6.21

Same question for CC(=O)SC1CC2=CC(=O)CC[C@]2(C)C2CC[C@@]3(C)C(CC[C@@]34CCC(=O)O4)C12 (stereo partly specified) please. -47.2

Also CCC(CC)C(=O)Nc1sc2c(c1C#N)CCC(C(C)(C)CC)C2 (stereo unspecified) ? -3.34

Follow-up item: Clc1ccc(Nc2nc3ccccc3c3nc(C4CCCCC4)[nH]c23)cc1Cl 22

CCCCNc1nc(N)c2[nH]c(=O)n(Cc3ccc(OCCN(C)C)nc3)c2n1 ? -9.55

Consider next the compound CC1CCC2C(C)(C)C(O)C(O)CC2(C)C12Cc1c(O)cc(CO)c(C=O)c1O2 (stereo unspecified) in the same way. 0.763

How about Nc1nc(Cl)nc2c1ncn2[C@H]1C[C@H](O)[C@@H](CO)O1 ? 24.5

Also Nc1nc2ccc(Cl)cc2n2c(-c3ccccc3)nnc12 , if possible. -21.3

Likewise for COc1cc(C(C)=O)ccc1O[C@@H]1O[C@H](CO[C@@H]2O[C@@H](C)[C@H](O)[C@@H](O)[C@H]2O)[C@@H](O)[C@H](O)[C@H]1O ? -13

// repeat for COC(=O)[C@H](O)[C@H]1C(C)(C)[C@H](OC(=O)C(C)C)[C@@]2(O)C(=O)[C@]1(C)C1CC[C@]3(C)C(CC(=O)O[C@H]3c3ccoc3)[C@]13O[C@@H]32 (stereo partly specified) and report 6.11

// query: CCC(C)c1ccc(NC(=O)Cn2cnc3c2c(=O)n(C)c(=O)n3C)cc1 (stereo unspecified) 11.5

Please give the result for Cc1ccc(Cl)cc1N(CC(=O)Nc1c(F)cccc1F)S(C)(=O)=O too. 0.955

Please give the result for Nc1ccc(C(=O)Nc2cccc(-c3nc(N4CCOCC4)c4oc5ncccc5c4n3)c2)cn1 too. 2.12

###

test.method.notes: BET inhibitor-based combinations targeting novel dependencies in MECOM-rearranged (r) AML: SET-2 cell line (AID 2202231);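 further: plate controls were DMSO treated cells for no effect and wells without cells for full effect; nearly all actives have a fitted effect of over 35% in size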
test.settings: SET-2 AML cells viability, CellTiter-Glo luminescence, 48 h; hits give low values, concentration not given here
Results filed as inconclusive are left out.
Please go through the items and note down their viability.
Report as a plain number; the unit % is understood.

May I ask what viability has been recorded for Cc1nc(-c2cccnc2)sc1C(=O)Nc1ccccc1-c1cn2c(CN3CCOCC3)csc2n1 ? 115

Can you handle C[C@]12CCC(=O)C=C1CC[C@@H]1[C@@H]2[C@@H](O)C[C@@]2(C)[C@H]1CC[C@]2(O)C(=O)CO next? 113

Entry to check: CC1Cc2ccccc2N1NC(=O)c1ccc(Cl)c(S(N)(=O)=O)c1 (stereo not given) 112

Same question, Cc1cc(-c2cc(OC(=O)c3ccccc3)ccc2Cl)cc2nnc(Nc3ccc(OCCN4CCCC4)cc3)nc12 this time 115

Would you kindly repeat that for Cc1nc(NC(=O)N2CCC[C@H]2C(N)=O)sc1-c1ccnc(C(C)(C)C(F)(F)F)c1 ? 89

###

test.method.notes: BET inhibitor-based combinations targeting novel dependencies in MECOM-rearranged (r) AML: AML-191 cell line (AID 2202236; further: nearly all actives have a fitted effect of over 35% in size)
test.settings: AML-191 viability, CellTiter-Glo luminescence, 48 h; series mostly up to 46 µM
Inconclusive results are not listed. Active and inactive are the calls of the source. The call rests on the fitted dose curve; in most records, active means well fitted inhibition curve with a large enough effect; inconclusive means small, poorly fitted or top-dose-only effect; inactive means flat fitted curve, though single readings scatter.
Give one outcome, nothing more. List: active, inactive

Which outcome did this test record for the compound O=C(O)CCNc1cc(N2CCc3ccccc3CC2)nc(-c2ccccn2)n1 ? inactive

# repeat for CCCCC(=O)O[C@]1(C(=O)CO)[C@@H](C)C[C@H]2[C@@H]3CCC4=CC(=O)C=C[C@]4(C)[C@@]3(F)[C@@H](O)C[C@@]21C active

Moving on to the next compound: COc1cc2c(Oc3ccc(-c4cnc(Nc5ccc(F)cc5)n(C)c4=O)cc3F)ccnc2cc1OCCCN1CCOCC1 active

And the next one, O=c1ccn([C@@H]2O[C@H](CO)[C@@H](O)[C@H]2O)c(=O)[nH]1 ? inactive

Here is the next compound: Cc1cc(Nc2ncc3c(n2)N(C)C(=O)N(c2cc(NC(=O)c4cccc(C(F)(F)F)c4)ccc2C)C3)n(C)n1 active

Then NC(=O)c1c(OCc2c(F)cc(Br)cc2F)nsc1NC(=O)NCCCCN1CCCC1 ? active

Next compound: O=C(NCCO[N+](=O)[O-])c1cccnc1 inactive

Further, for C1CCC(C(CC2CCCCN2)C2CCCCC2)CC1 (centres undefined) ? active

Thanks! And CCc1c2c(nc3ccc(OC(=O)N4CCC(N5CCCCC5)CC4)cc13)-c1cc3c(c(=O)n1C2)COC(=O)[C@]3(O)CC ? active

Here is the next compound: CCCC1OC2C[C@@H]3[C@H]4CCC5=CC(=O)C=C[C@]5(C)[C@H]4C(O)C[C@]3(C)[C@]2(C(=O)CO)O1 (some centres undefined) active

What about this compound? CC(C)C[C@H](NC(=O)[C@H](Cc1ccccc1)NC(=O)c1cnccn1)B(O)O active

What do we get for CC[C@@H]1C(=O)N(C)c2cnc(Nc3ccc(C(=O)NC4CCN(C)CC4)cc3OC)nc2N1C1CCCC1 ? active

Follow-up entry: COc1ccccc1OCC(O)CN1CCN(CC(=O)Nc2c(C)cccc2C)CC1 (centres undefined) inactive

Can you handle Cc1cccc(Oc2cnc(=O)[nH]c2)c1 next? inactive

// next record CC(C)c1ccc2c(c1)c(SC(C)(C)C)c(CC(C)(C)C(=O)O)n2Cc1ccc(Cl)cc1 active

Please do the same for N#Cc1ccc(Oc2ccc3c(c2)COB3O)cc1 as well. active

Now consider O=C1CCCC2=C1C(c1[nH]ncc1Cl)N=C(Nc1nc3ccccc3o1)N2 (centres undefined) . active

Request: COc1cc(C[C@@H](CO)[C@H](CO)Cc2ccc(O)c(OC)c2)ccc1O inactive

Proceed to Nc1nc(N)c2nc(-c3cccc(O)c3)c(-c3cccc(O)c3)nc2n1 active

###

target.or.test.system: Cellular tumor antigen p53 (Homo sapiens)
test.method.notes: Primary qHTS for small molecule compounds that upregulate eGFP-tagged delta133p53alpha (in N-terminal) cells. (AID 2060322);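 further: cells pre-induced with doxycycline then dosed without doxycycline; 0% = DMSO vehicle and 100% = reference activator; nearly all actives have a fitted effect of over 75% in size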
test.settings: NCI-H358 eGFP-delta133p53alpha fluorescence, 24 h; hits give high values
Results filed as inconclusive are left out.
reported.property: activation (%)
Write the answer as a number in %, unit excluded.

GET /values?readout=activation&system=Cellular tumor antigen p53 (Homo sapiens)&item= CC(C)N(CCCNC(=O)Nc1ccc(C(C)(C)C)cc1)C[C@H]1O[C@@H](n2cc(Br)c3c(N)ncnc32)[C@H](O)[C@H]1O -20.1

Quick one: CC1(C)CC[C@@]2(C(=O)O[C@@H]3O[C@H](CO)[C@@H](O)[C@H](O)[C@H]3O)C(C1)C1=CCC3[C@@]4(C)CC[C@@H](O[C@@H]5O[C@H](C(=O)O)[C@@H](O[C@@H]6OC[C@@H](O)[C@H](O)[C@H]6O)[C@H](O[C@@H]6OC[C@](O)(CO)[C@H]6O)[C@H]5O)C(C)(C)C4CC[C@@]3(C)[C@]1(C)C[C@H]2O (some centres not stated) -19.8

###

Provide the reported activation of each item.
target.or.test.system: Cellular tumor antigen p53 (Homo sapiens) (UniProt P04637)
test.method.notes: Primary qHTS for small molecule compounds that upregulate eGFP-tagged delta133p53alpha (in N-terminal) cells. (AID 2060322);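 further: cells pre-induced with doxycycline then dosed without doxycycline; 0% = DMSO vehicle and 100% = reference activator; nearly all actives have a fitted effect of over 75% in size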
test.settings: NCI-H358 eGFP-delta133p53alpha fluorescence, 24 h; hits give high values
Results filed as inconclusive are left out. Peptide text beside a SMILES is read from it. * marks the point of attachment. PhAc = O=C(Cc1ccccc1)*
Report the figure in % without appending any unit label.

// lookup activation for CC(=O)OC/C(=C/C(=O)O)CC[C@@H]1C(C=O)=CC[C@@H]2C(C)(C)CCC[C@@]12C -32.8

And for COC(=O)C[C@@H]1C(C(=O)O)=CO[C@@H](O[C@@H]2O[C@H](CO)[C@@H](O)[C@H](O)[C@H]2O)/C1=C\COC(=O)/C=C/c1ccc(O)c(OC)c1 ? 6.87

Similarly, Cn1c([N+](=O)[O-])cnc1COC(N)=O ? -9.6

Proceed to OC[C@H]1O[C@@H](Oc2cc(O)cc(-c3cc4ccc(O[C@@H]5O[C@H](CO)[C@@H](O)[C@H](O)[C@H]5O)cc4o3)c2)[C@H](O)[C@@H](O)[C@@H]1O -14.3

Now try COC(=O)c1ccc(N2CCN(C)CC2)c(NC(=O)c2cccc(OC)c2)c1 . 9

Also, Cc1ccc2ccc(Cl)cc2n1 please. -5.08

Lookup C#CCCCn1cc(-c2cccc3c2N[C@H](C)CC(=O)N3)cn1 8.93

And what about the molecule O=C(/C=C/c1ccc(O)cc1)OCC1OC(O)C(OC2OC(CO)C(O)C(O)C2O)C(O)C1O (centres undefined) ? -13

Follow-up item: CCOC(=O)CNC(=O)[C@@H]1CCCN1C(=O)Cc1ccccc1 (PhAc-Pro-Gly-OEt) 13.8
